# System: HPPD polypeptides (wild-type SEQ ID NO:1 and mutants)
# condition: in the presence of Cmpd. 2, 15 μM inhibitor, high substrate concentration; total change in signal normalized to no inhibitor

>  <molecule>
18 (protein, mutant HPPD polypeptide) MADLYENPMGLMGFEFIEFASPTPGTLEPIFEIMGFTKVATHRSKNVHLYRQGEINLILNNEPNSIASYFAAEHGPSVCGMAFRVKDSQKAYNRALELGAQPIHIDTGPMELNLPAIKGIGGAPLYLIDRFGEGSSIYDIDFVYLEGVERNPVGAGLKVIDHLTHNVYRGRMVYWANFYEKLFNFREARYFDIKGEYTGLTSKAMSAPDGMIRIPLNEESSKGAGQIEEFLMQFNGEGIQHVAFLTDDLVKTWDALKKIGMRFRTAPPDTYYEMLEGRLPDHGEPVDQLQARGILLDGSSVEGDKRLLLQIFSETLMGPVFFEFIQRKGHDGFGPDSFKVLFESIERDQVRRGVLTAD

>  <Residual turnover>
n.i.

$$$$
>  <molecule>
30 (protein, mutant HPPD polypeptide) MADLYENPMGLMGFEFIEFASPTPGTLEPIFEIMGFTKVATHRSKNVHLYRQGEINLILNNEPNSIASYFAAEHGPSVCGMAFRVKDSQKAYNRALELGAQPIHIDTGPMELNLPAIKGIGGAPLYLIDRFGEGSSIYDIDFVYLEGVERNPVGAGLKVIDHLTHNVYRGRMVYWANFYEKLFNFREARYFDIKGEYTGLTSKAMSAPDGMIRIPLNEESSKGAGQIEEFLMQFNGEGIQHVAFLTDDLVKTWDALKKIGMRFMTAPSDSYYEMLEGRLPDHGEPVDQLQARGILLDGSSVEGDKRLLLQIFSETLMGPVFFEFIQRKGDDGFGPHSFKVLFESKERDQVRRGVLTAD

>  <Residual turnover>
n.i.

$$$$
>  <molecule>
22 (protein, mutant HPPD polypeptide) MADLYENPMGLMGFEFIEFASPTPGTLEPIFEIMGFTKVATHRSKNVHLYRQGEINLILNNEPNSIASYFAAEHGPSVCGMAFRVKDSQKAYNRALELGAQPIHIDTGPMELNLPAIKGIGGAPLYLIDRFGEGSSIYDIDFVYLEGVERNPVGAGLKVIDHLTHNVYRGRMVYWANFYEKLFNFREARYFDIKGEYTGLTSKAMSAPDGMIRIPLNEESSKGAGQIEEFLMQFNGEGIQHVAFLTDDLVKTWDALKKIGMRFMTAPPDTYYEMLEGRLPDHGEPVDQLQARGILLDGSSVEGDKRLLLQIFSETLMGPVFFEFIQRKGDDGFGPHSFKVLFESIERDQVRRGVLTAD

>  <Residual turnover>
n.i.

$$$$
